System: SK-MEL-28 melanoma
Assay: NCI-60 one-dose screen, 48 h (100 = growth as untreated, 0 = no growth, -100 = all killed)
Settings: 10 µM unless noted
The panel holds about 83,000 compounds, 20% with a hit somewhere; the sample as a whole holds those more often.
Kind request: treat 80% as inclusive, so growth at 80% or higher is fulfilled, anything lower is not fulfilled.

CC([C@H]1CCC2C3CCC4C[C@@H](NC=O)CC[C@]4(C)C3CC[C@@]21C)N(C)C (stereo not given in full) = not fulfilled
COc1ccc(S(=O)(=O)n2cc(C3OC(c4cc(OC)c(OC)c(OC)c4)=NN3C(C)=O)c3ccccc32)cc1OC (stereo not given) = fulfilled
COc1ccc(-c2ncnc3c2ncn3CC#CCCl)cc1 = fulfilled
O=C(Nc1ccc(OS(=O)(=O)c2ccc(F)cc2)cc1)c1ccc(Cl)cc1 = fulfilled
COc1ccc(-c2nc3sc(-c4ccc(Cl)cc4)cn3n2)cc1 = fulfilled

## Input Answer whether growth of O=C(Nc1ccc(Br)cc1F)c1cc(Br)ccc1O is greater than or equal to 80%.
## Output not fulfilled

## Input Answer whether growth of COc1ccn2c(C(C)=O)cc(C(=O)c3ccc4c(c3)Sc3ccccc3N4)c2c1 is greater than or equal to 80%.
## Output not fulfilled

## Input Answer whether growth of Fc1cc(-c2nnc3n2NC(=Nc2ccc(Cl)cc2)CS3)c(Cl)cc1Cl is greater than or equal to 80%.
## Output fulfilled

## Input Answer whether growth of CN1CCN(c2ccc(-c3ccc4ncc(C#N)c(Nc5ccc(F)c(Cl)c5)c4c3)cn2)CC1 is greater than or equal to 80%.
## Output not fulfilled

====

System: KM12 colon
Assay: NCI-60 one-dose screen, 48 h (100 = growth as untreated, 0 = no growth, -100 = all killed)
Conditions: 10 µM unless noted
About 83,000 compounds went through this panel and 20% of them were active in at least one assay; those are over-represented in the sample as a whole.
Overview of reported growth across a group of compounds:
Field format: number, assumed %, no unit text.

COc1cc(C2CC(c3cccc(Br)c3)=NN2C(C)=O)cc(OC)c1OC (stereo not given) = 16.9
CN(C)CCS(=O)(=O)Nc1cc(-c2ccc3ncc(C#N)c(Nc4ccc(F)c(Cl)c4)c3c2)cnc1Cl = -25.4
CC/C=C\C[C@@H]1C/C=C2/C(=O)C=C[C@H]2C/C=C\CCCC(=O)O1 = -92.3

response.value for O=C(Nc1c2ccccc2nc2ccccc12)c1ccccc1CN1C(=O)c2ccccc2C1=O (field: growth) = 26

response.value for COc1ccn2c(C(C)=O)cc(C(=O)c3ccc4c(c3)Sc3ccccc3N4)c2c1 (field: growth) = 7.27

====

Test system: SNB-19 CNS
Experiment: NCI-60 one-dose screen, 48 h (100 = growth as untreated, 0 = no growth, -100 = all killed)
Details: 10 µM unless noted
This is part of a sample that, as a whole, favours compounds with a hit. Of some 83,000 tested, about 20% had one in any assay. Active and inactive are the calls of the source. Rule for the calls: active = growth percent below 10; inactive = the rest.
Overview of reported growth across a group of molecules:

COc1ccc(N)c(N)c1 = 96.7% (inactive)
CCCCOc1nc2ccc(OC)cc2cc1-c1cc(-c2ccc(Cl)cc2)nc(-c2ccc(Cl)cc2)c1 = 93.6% (inactive)
OC(COc1ccccc1Cl)CN1CCN(c2cccc(Cl)c2)CC1 (stereo unspecified) = 97.6% (inactive)
COc1cccc(Oc2ccccc2NC(=O)CNC(=O)c2cccc3ccccc23)c1 = 41.7% [5 µM] (inactive)
CC([C@H]1CCC2C3CCC4C(=O)C(NC=O)=CC[C@]4(C)C3CC[C@@]21C)N(C)C (stereo partly specified) = 76% (inactive)
O=c1c2cccc(F)c2sc2c(NCCCNCCO)nc3ccccc3c12 = 44.1% (inactive)
O=C(O)c1cn(C2CC2)c2cc(N3CCN(C(=O)Nc4nc(-c5ccccc5)cs4)CC3)c(F)cc2c1=O = 21.6% (inactive)
O=C(/C=C/c1sc(Cl)nc1Cl)c1ccccc1 = 96% (inactive)
CC1=NN(c2ccc(S(=O)(=O)O)cc2)C(=O)C1N=Nc1ccc(-c2ccc(N=Nc3ccc(OS(=O)(=O)c4ccc(C)cc4)cc3)c(S(=O)(=O)O)c2)cc1 (stereo unspecified) = 104% (inactive)
O=C(CCN1C(=O)/C(=C/c2ccc(O)cc2)SC1=S)Nc1ccc(Cl)cc1 = 89.7% (inactive)

Bench note, SNB-19 CNS: COc1cc2cc(Oc3ccc(NC(=O)Nc4ccc(Cl)c(Cl)c4)cc3)c(C)nc2cc1OCCN1CCOCC1 , growth reads 90.5% (inactive)
